# Tested on: DU-145 prostate
# PROCEDURE SUMMARY: NCI-60 one-dose screen, 48 h (100 = growth as untreated, 0 = no growth, -100 = all killed)
# CONDITIONS USED: 10 µM
About 83,000 compounds went through this panel and 20% of them were active in at least one assay; those are over-represented in the sample as a whole. Activity calls are given as the source filed them. Rule for the calls: active = growth percent below 10; inactive = the rest.
Provide the recorded growth for the entries that follow.

COMPOUND | growth
O=C1CCC(N2Cc3c(C#CCCCNC(=O)c4ccc(NC(=O)[C@@H]5NC6(CCCCC6)[C@@]6(C(=O)Nc7cc(Cl)ccc76)[C@H]5c5cccc(Cl)c5F)cc4)cccc3C2=O)C(=O)N1 (stereo partly specified) | 82.1% (inactive)
CN1CCO/C1=C(/NC(=O)c1ccc(Cl)cc1)[P+](c1ccccc1)(c1ccccc1)c1ccccc1 | 95.2% (inactive)
CCCCCCCCCCCCCCCCCCCC(=O)NCCc1c[nH]c2ccc(O)cc12 | 105% (inactive)
COc1ccc2[nH]c(=O)c(CSc3nccc(-c4ccc(Cl)cc4)n3)cc2c1 | 44.8% (inactive)

Hi there! I need growth for each item below, if you can.
1. COc1cc(/C=C/C(=O)c2cc(OC)c(OC)c(OC)c2)ccc1Oc1nc(Nc2ccc(F)cc2)nc(N(C)C)n1
2. Nc1nc(Nc2ccccc2)nn1Cc1c(Cl)cccc1Cl
3. CN1CCN(c2ccc(Nc3nc(N4CCN(S(=O)(=O)c5ccc(Cl)cc5)CC4)c4sccc4n3)cc2)CC1

Result string:
-35.8% (active)
48% (inactive)
-60.8% (active)

Hi there! I need growth for each item below, if you can.
1. COc1ccc(C(=O)/C=C/c2ccc(Cl)c(C(F)(F)F)c2)cc1S(N)(=O)=O
2. COc1ccc(/C=C/C(=O)c2ccc(NC(=O)CN3C(=O)NC(C)(c4ccccc4)C3=O)cc2)cc1 (stereo unspecified)
3. CSc1nc(-c2cccc(C)c2)c2cc(-c3ccccc3)n(C)c2n1
4. COC[C@@H](CC(C)C)N=C1NC(=O)/C(=C/c2ccc3ncsc3c2)N1

Result string:
1. -20.9% (active)
2. 87.7% (inactive)
3. 31.4% (inactive)
4. 15.7% (inactive)

Hi there! I need growth for each item below, if you can.
1. CN1CCCN(Cc2ccc(C(=O)Nc3cccc(Nc4ccc5cc(O)ccc5n4)c3)cc2C(F)(F)F)CC1
2. COc1ccc(Nc2nc(N)n(Cc3cccc(Br)c3)n2)cc1
3. Cc1cc(=O)oc2cc(OCCCCOc3ccc(/C=C/C(=O)Nc4ccccc4[N+](=O)[O-])cc3)ccc12

Result string:
1. 73.7% (inactive)
2. 22.6% (inactive)
3. 102% (inactive)

Hi there! I need growth for each item below, if you can.
1. Clc1cccc(N/N=C/c2c[nH]c3ccccc23)n1
2. Cc1ccc2nc(COc3ccc(C(=O)NNC(=S)NCCc4ccccc4)cc3)[nH]c2c1
3. O=c1[nH]c2ccc(Cl)cc2cc1CSc1ccc(Nc2nccc(-c3ccc4ccccc4c3)n2)cc1
4. Cc1cccc(NC(=O)CSc2nc3ccc(F)cc3c(=O)n2-c2ccc(Cl)cc2)c1C
5. CC(C)c1ccc(C(=O)Nc2sc3c(c2C(N)=O)CCC(=O)C3=O)cc1
6. CN(C(=O)c1ccc(C(F)(F)F)cc1C(F)(F)F)c1sc2c(c1C#N)CCC(=O)C2
7. COc1cnc2c(c1)C(=O)c1c-2n(CCCNC(C)C)c(=O)c2cc(OC)c(OC)cc12
8. O=C(c1ccc(Cl)cc1)C1[C@H](c2ccc(Br)cc2)[C@@H](c2ccccc2)NC12C(=O)Nc1ccc(Br)cc12 (stereo partly specified)

Result string:
1. 48.7% (inactive)
2. 98.9% (inactive)
3. 38.3% (inactive)
4. 69.6% (inactive)
5. 103% (inactive)
6. 103% (inactive)
7. 16.4% (inactive)
8. -43.2% (active)
